- target: Human immunodeficiency virus type 1 reverse transcriptase (Human immunodeficiency virus 1, UniProt Q72547)
pIC50: −log10 of the molar value.
The threshold is inclusive: pIC50 of exactly 7 counts as Y; values below receive N.

> print(dat)
                             chemical.smiles  category
 1         CCN1C(=O)c2cc(N)ccc2Oc2cccc(C)c21         Y
 2  CCN1C(=O)c2cccnc2Oc2cc(C)cc([N+](=O)[O-])c21         Y
 3          Cc1ccc2c(c1)Oc1ccc(N)cc1C(=O)N2C         Y
 4        Cc1cc(C#N)c2c(c1)Oc1ncccc1C(=O)N2C         Y
 5          Cc1cc(N)c2c(c1)Oc1ncccc1C(=O)N2C         N
 6      CCN1C(=O)c2cc(N)ccc2Oc2cc(C)cc(C)c21         Y
 7          Cc1ccc2c(c1)Oc1ncc(N)cc1C(=O)N2C         N
 8     CCCN1C(=O)c2cc(N)ccc2Oc2cc(C)c(C)cc21         N
 9  CCN1C(=O)c2cccnc2Oc2cccc([N+](=O)[O-])c21         N
10        Cc1ccc2c(c1)Oc1ccc(C#N)cc1C(=O)N2C         N
